tested on: Huh7.5.1; assay: Cytotoxicity in human Huh-7.5.1 cells assessed as reduction in cell viability at 10 uM incubated for 72 hrs by CellTiter-Glo luminescent cell viability assay; format: toxicity, cell-based; settings: huh7.5.1, 72 h
property-name: Activity

Previously resolved entries follow.
molecule: COc1cc(OCC(=O)N/N=C/c2ccc(Cl)cc2)cc2c1CCC(c1cc(OC)c(OC)c(OC)c1)O2 (stereo not drawn)
val: Non-Toxic
--
molecule: COc1cc(OCC(=O)N/N=C/c2ccc(Cl)s2)cc2c1CCC(c1cc(OC)c(OC)c(OC)c1)O2 (stereo not drawn)
val: Non-Toxic
--
molecule: COc1cc(OCC(=O)N/N=C/c2ccc(Cl)c(O)c2)cc2c1CCC(c1cc(OC)c(OC)c(OC)c1)O2 (stereo not drawn)
val: Toxic
--
molecule: COc1cc(OCC(=O)N/N=C/c2ccc(C)cc2)cc2c1CCC(c1cc(OC)c(OC)c(OC)c1)O2 (stereo not drawn)
val: Non-Toxic

// COc1cc(OCC(=O)N/N=C/c2ccc(Br)cc2)cc2c1CCC(c1cc(OC)c(OC)c(OC)c1)O2 (stereo not drawn) : Activity value = Non-Toxic

Activity in this record for COc1cc(OCC(=O)N/N=C/c2ccc(Cl)c(Cl)c2)cc2c1CCC(c1cc(OC)c(OC)c(OC)c1)O2 (stereo not drawn) : Toxic

Form field Activity, entry COc1cc(OCC(=O)N/N=C(\C)c2ccccc2O)cc2c1CCC(c1cc(OC)c(OC)c(OC)c1)O2 (stereo not drawn) : Toxic

Record COc1ccc(/C=N/NC(=O)COc2cc(OC)c3c(c2)OC(c2cc(OC)c(OC)c(OC)c2)CC3)cc1 (stereo not drawn) , field Activity: Toxic
